Source listed as patent US20260092074A1.

molecular target: UniProtKB P19099; assay: Inhibition of hCYP11B2 in transfected V79 cells; conditions: hamster V79 cells expressing human CYP11B2; substrate 11-deoxycorticosterone 200 nM
measured_parameter: IC50 (nM)
Express your answer in nM, writing the number without its unit.

Consider the reported IC50 for these compounds:
INSERT INTO assay_data (compound, measured_parameter, val) VALUES
  ('COc1ccc(S(=O)(=O)N2CC(S(=O)(=O)N3CCSc4c(-c5ccc(C#N)cc5)cncc43)C2)cc1 [S78]', 'IC50', 1.2),
  ('N#Cc1ccc(-c2cncc3c2ccn3C(=O)c2ccccc2[N+](=O)[O-])cc1 [E29]', 'IC50', 2.5),
  ('N#Cc1ccc(S(=O)(=O)N2CCSc3c(-c4cc5cc(C#N)ccc5o4)cncc32)cc1 [S42]', 'IC50', 0.3),
  ('N#Cc1ccc(S(=O)(=O)N2CCSc3c(-c4cc5ccccc5s4)cncc32)cc1 [S43]', 'IC50', 6.5);

Would you kindly look at the next entry?
[Q] Name the recorded IC50 of the item COc1ccc(S(=O)(=O)N2CCSc3c(-c4cccc(Cl)c4)cncc32)cc1 [S29] in your answer.
[A] 1.5

----------
target: human CYP11B2 (Homo sapiens, UniProt P19099); assay: Inhibition of hCYP11B2 in transfected V79 cells; conditions: hamster V79 cells expressing human CYP11B2; substrate 11-deoxycorticosterone 200 nM
Sequence (P19099 25-503): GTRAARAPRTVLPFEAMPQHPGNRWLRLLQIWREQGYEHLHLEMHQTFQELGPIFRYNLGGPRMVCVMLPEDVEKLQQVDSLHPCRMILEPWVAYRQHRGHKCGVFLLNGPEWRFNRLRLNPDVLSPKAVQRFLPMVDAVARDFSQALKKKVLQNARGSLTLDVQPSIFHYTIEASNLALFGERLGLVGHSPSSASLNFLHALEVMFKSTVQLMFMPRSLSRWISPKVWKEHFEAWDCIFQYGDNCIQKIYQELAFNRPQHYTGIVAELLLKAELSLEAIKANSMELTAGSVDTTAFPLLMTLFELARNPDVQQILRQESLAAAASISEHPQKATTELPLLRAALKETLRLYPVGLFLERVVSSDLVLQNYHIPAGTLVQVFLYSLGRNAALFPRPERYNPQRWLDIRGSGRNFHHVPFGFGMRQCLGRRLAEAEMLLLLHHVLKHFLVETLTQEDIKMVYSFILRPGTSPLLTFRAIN
measured_parameter: IC50 (nM)
Express your answer in nM, writing the number without its unit.

[Q] Name the recorded IC50 of the item COc1cccc(S(=O)(=O)N2CC(S(=O)(=O)N3CCOc4c(-c5ccc(C#N)cc5)cncc43)C2)c1 [O119] in your answer.
[A] 4.2

[Q] Name the recorded IC50 of the item N#Cc1ccc(-c2cncc3c2OCCN3C(=O)C2CN(S(=O)(=O)c3cccc(C#N)c3)C2)cc1 [O74] in your answer.
[A] 1.3

----------
molecular target: human CYP11B2 (Homo sapiens); test: Inhibition of hCYP11B2 in transfected V79 cells; details: hamster V79 cells expressing human CYP11B2; substrate 11-deoxycorticosterone 200 nM
measured_parameter: pIC50
On this scale, pIC50 is minus log10 of a concentration expressed in M (mol/L).

INSERT INTO results (structure, measured_parameter, val) VALUES
  ('N#Cc1ccc(-c2cncc3c2OCCN3S(=O)(=O)C2CN(c3ccc(F)cc3)C2)cc1', 'pIC50', 8.64);

[Q] Name the recorded pIC50 of the item `N#Cc1ccc(-c2cncc3c2OCCN3S(=O)(=O)C2CN(S(=O)(=O)c3cccc(C#N)c3)C2)cc1` in your answer.
[A] 8.49

[Q] Name the recorded pIC50 of the item `CC(=O)Nc1nc(C)c(S(=O)(=O)N2CCSc3c(-c4cc5cc(Cl)ccc5o4)cncc32)s1` in your answer.
[A] 8.41

[Q] Name the recorded pIC50 of the item `COc1ccc(S(=O)(=O)N2CC(C(=O)N3CCOc4c(-c5ccc(C#N)cc5)cncc43)C2)cc1` in your answer.
[A] 8.57

[Q] Name the recorded pIC50 of the item `COc1ccc(CN2CC(S(=O)(=O)N3CCOc4c(-c5ccc(C#N)cc5)cncc43)C2)cc1` in your answer.
[A] 9.30

[Q] Name the recorded pIC50 of the item `COc1ccc(S(=O)(=O)N2CCSc3c(-c4ccc(Cl)cc4)cncc32)cc1` in your answer.
[A] 9.70

[Q] Name the recorded pIC50 of the item `N#Cc1ccc(-c2cncc3c2ccn3C(=O)c2cccc(C(F)(F)F)c2)cc1` in your answer.
[A] 9.10

[Q] Name the recorded pIC50 of the item `COc1ccc(CC(=O)N2CCOc3c(-c4ccc(C#N)cc4)cncc32)cc1` in your answer.
[A] 9.10
